measurement_notes: Probe fluorescence ratio response to linolenic acid relative to ADIFAB2
Format: binding
condition_description: Table 5
Exercise: for every item that follows, state its recorded ΔR/DRAΔ2 LNA.
One number for each entry.

Dear colleague, could you send me ΔR/DRAΔ2 LNA for each of the items below? Thanks.
1. L2P1E6: FABP probe, substitutions M18L A73L vs SEQ ID NO: 2 (protein, listed as Rattus norvegicus, PEPTIDE (1)...(131) wild-type rat intestinal fatty acid binding protein) AFDGTWKVDRNENYEKFLEKMGINVVKRKLGAHDNLKLTITQEGNKFTVKESSNFRNIDVVFELGVDFAYSLLDGTELTGTWTMEGNKLVGKFKRVDNGKELIAVREISGNELIQTYTYEGVEAKRIFKKE
2. L2P8B8: FABP probe, substitution A73F vs SEQ ID NO: 2 (protein, listed as Rattus norvegicus, PEPTIDE (1)...(131) wild-type rat intestinal fatty acid binding protein) AFDGTWKVDRNENYEKFMEKMGINVVKRKLGAHDNLKLTITQEGNKFTVKESSNFRNIDVVFELGVDFAYSLFDGTELTGTWTMEGNKLVGKFKRVDNGKELIAVREISGNELIQTYTYEGVEAKRIFKKE
3. L2P22G6: FABP probe, substitutions M18I G31Y A73G vs SEQ ID NO: 2 (protein, listed as Rattus norvegicus, PEPTIDE (1)...(131) wild-type rat intestinal fatty acid binding protein) AFDGTWKVDRNENYEKFIEKMGINVVKRKLYAHDNLKLTITQEGNKFTVKESSNFRNIDVVFELGVDFAYSLGDGTELTGTWTMEGNKLVGKFKRVDNGKELIAVREISGNELIQTYTYEGVEAKRIFKKE

Found:
[0.1, 1.8, 2.7]
